Recorded endpoint: melting point

Please report melting point for the following compound: C[S+](CCCOc1ccc(Cl)cc1)c1c([O-])c2cccnc2n(Cc2ccccc2)c1=O (stereo not shown)
145 to 147 °C

Give me measured melting point, please, for this compound: Cc1cc(C)c(COCC[S+](C)c2c([O-])c3cccnc3n(Cc3ccccc3)c2=O)c(C)c1 (stereo not shown)
165 to 167 °C

Query melting point for COc1cc(COCC[S+](C)c2c([O-])c3cccnc3n(Cc3ccccc3)c2=O)cc2c1OCO2 (stereo not shown)
84 to 87 °C

Give the measured melting point for C[S+](CCOCc1ccc2c(c1)OCO2)c1c([O-])c2cccnc2n(Cc2ccccc2)c1=O (stereo not shown)
124 to 126 °C

Give the value of melting point reported for the following: COc1cc(COCC[S+](C)c2c([O-])c3cccnc3n(Cc3ccccc3)c2=O)cc(O)c1OC (stereo not shown)
132 to 134 °C

New cases:
Please look at this compound and report its melting point: C[S+](CCOCc1ccccc1)c1c([O-])c2cccnc2n(Cc2ccccc2)c1=O (stereo not shown)
130 to 132 °C

Give reported melting point value for COc1cc(COCC[S+](C)c2c([O-])c3cccnc3n(Cc3ccccc3)c2=O)cc(OC)c1O (stereo not shown)
121 to 123 °C

# return recorded melting point for input Cc1cccc(C)c1COCC[S+](C)c1c([O-])c2cccnc2n(Cc2ccccc2)c1=O (stereo not shown)
161 to 163 °C

In one line, give reported melting point of the entry COc1cc(OCCC[S+](C)c2c([O-])c3cccnc3n(Cc3ccccc3)c2=O)cc(OC)c1OC (stereo not shown) .
147 to 149 °C

Entry C[S+](CCOCc1cc(C(F)(F)F)cc(C(F)(F)F)c1)c1c([O-])c2cccnc2n(Cc2ccccc2)c1=O (stereo not shown) needs its melting point filled in; supply it.
157 to 159 °C
